- ASSAY: label from the status in PepcDB records
RECORDED METRIC: protein production

Example entries and their recorded answers appear below.
ORDERED RESIDUES	RESULT
MKVNPDFFPLTQMAQRFVDQLAQCRRLGLTVLEASEHHVLIELPYSTELIGYPDTGVIHGGVITTLMDTACGSAVVSAIFQKYQSLEISPTLDLRVDYMKPAQPHKSVYGFAECYKLSSNIAFTRAIAYQDSIDDPIAHAVGSFMRISPEMVGDAFRQALIGLEHHHHHH	not failed
EVQKPLHEQLWYHGAIPRAEVAELLVHSGDFLVRESQGKQEYVLSVLWDGLPRHFIIQSLDNLYRLEGEGFPSIPLLIDHLLSTQQPLTKKSGVVLHRAVP	not failed
NVRVITDENWRELLEGDWMIEFYAPWCPACQNLQPEWESFAEWGEDLEVNIAKVDVTEQPGLSGRFIINALPTIYHCKDGEFRRYQGPRTKKDFINFISDKEWKSIEPVSSWF	not failed
MDFLVAHFNLLRGLHILAVIAFMAGMLYLPRLFVYHTKATPGSQMDETFKVMERRLLRGIINPASIATAVFGLGLILADAQIRGWDFLLQPWMIAKLVALVGLYGFHGFLSASRKKFERGENVRSEKFWRMVNEIPFVLAIVIVMSVTTKYLNH	failed

Please look at the following sequence next.
[Q] Give recorded protein production. LPPKKFGNPGERLRKKKWDLSELPKFEKNFYVEHPEVARLTPYEVDELRRKKEITVRGGDVCPKPVFAFHHANFPQYVMDVLMDQHFTEPTPIQCQGFPLALSGRDMVGIAQTGSGKTLAYLLPAIVHINHQPYLERGDGPICLVLAPTRELAQQVQQVADDYGKCSRLKSTCIYGGAPKGPQIRDLERGVEICIATPGRLIDFLESGKTNLRRCTYLVLDEADRMLDMGFEPQIRKIVDQIRPDRQTLMWSATWPKEVRQLAEDFLRDYTQINVGNLELSANHNILQIVDVCMESEKDHKLIQLMEEIMAEKENKTIIFVETK
[A] failed

----------
- ASSAY: label from the status in PepcDB records

ORDERED RESIDUES	protein production
MNPIILALFDVSIFILLAEILSSLVQKYGLPKLIGELLAGMIIGPYALGSLLNQLLGFPLIGINSYIEFLAEFSVILLIFASGLEHGIAPIKSSGILGFLGATFGALLPFFAAYYFYISSFGLDSALILGTAMGATSLAAVASIIEEGKLKGKGINFMVSSAAADDVVDLLLLSVVIAILQGESTSVTSISLKIIALVVIWVVILVVSIILIPKITDRISDKYIEEFPLAVLFGLTLLMVSLGYSPIISAFVAGVAFANSVKNSKIKEISSTLLSVFGPLFFVYIGAEVNFLTLNLNTVILSLELTAIATIFKWLGIFPFALAYLRNAKAANTVALGMVPRGETGLVIASLGLSYNALNQEEFEGIVFMSIFTTLIGSALFKIYAKKHLVS	failed
MFTFISIMAVGVLIGYPLRHKSQVRKITPLIHIVVCLLLFLLGLSIGLNRLIIDNLGYFCGQAAVISSLSILGSMMASLAVYHIFF	failed

----------
- ASSAY: label from the status in PepcDB records
RECORDED METRIC: protein production

Example entries and their recorded answers appear below.
ORDERED RESIDUES	RESULT
MTTNRYMKGIMWAMLASTLWGVSGTVMQFVSQNQAIPADWFLSVRTLSAGIILLAIGFVQQGTKIFKVFRSWASVGQLVAYATVGLMANMYTFYISIERGTAAAATILQYLSPLFIVLGTLLFKRELPLRTDLIAFAVSLLGVFLAITKGNIHELAIPMDALVWGILSGVTAALYVVLPRKIVAENSPVVILGWGTLIAGILFNLYHPIWIGAPKITPTLVTSIGAIVLIGTIFAFLSLLHSLQYAPSAVVSIVDAVQPVVTFVLSIIFLGLQVTWVEILGSLLVIVAIYILQQYRSDPASD	failed
MTSAQKPVFSPSDLQTWLEIATEAVLAAGAEIFSLWGKVQQIQEKGRAGDLVTEADRQAEAIILEIIKRRCPDHAILAEESGQLGQVDNPFCWAIDPLDGTTNFAHSYPVSCVSIGLLIQDIPTVGVVYNPFRQELFRAATSLGATLNRRPIQVSTTASLDKSLLVTGFAYDRVKTLDNNYPEFCYLTHLTQGVRRSGSAAIDLIDVACGRLDGYWERGINPWDMAAGIVIVREAGGIVSAYDCSPLDLSTGRILATNGKIHQELSQALAATPQWFQQYAAARAQKI	failed
MSLSTAADLLRQGAACSVLYLTSVETESLTGPQAVARASSAALSCSPRPTPAVVHFKVSAQGITLTDNQRKLFFRRHYPVNSITFSSTDPQDRRWTNPDGTTSKIFGFVAKKPGSPWENVCHLFAELDPDQPAGAIVTFITKVMLGQRKEGHHHHHH	not failed
MSGTGEVRGMRAARIAAGAVIPGELALAVCLAAGVRPPVWATAAAEAVALAVLMLEAWVLRSLYASRRAQGLEPPAALRAAVRAVVPARVRRLLVHELRAAASLGRWAARRKHGVRPGDHVAGYTGPQTAMMYGLIFVSVIETVALAVLIPWPVVHRVLLVLDVYGVLMMLGLHAACVTRPHVARPDGSLRIRYGALFDLAVPADAVASVRVDRCYPQGRLVTLSEKGVLDLIVAGQTTVTLELTRPLVFTRPLGGRGEARTIRFHADDPRALVGALRRPALT	failed
MVSAAGELGTLRQRAWAAAANVVDPEIPVLTIEDLGVLRDVTVSGDRIEVSITPTYSGCPAMTMIALEIELALAREGIAGAKITTVLSPAWTTDWMSDAGRRKLRDYGIAPPLSGGGRRALFGEQQVACPQCGSIATTVLSEFGSTSCKALWRCLDCREPFDYFKCH	failed

[Q] Give recorded protein production. MDIKNSEYRFSPLVIGLHWLTVILIIAVYASMELRGLAPKGALRDAMKSLHYLLGLSVLVIVVIRIGVRIQAGVKPAIQPPMPRWQATLADGMHYALYSFMLAMPLLGWLTLSAAGKPIVLFGLPVPSLIGTDVALSRQLKDVHEALATLGYVLIGLHAMAALLHHYVMRDNTVVRMLPGRRP
[A] not failed

[Q] Give recorded protein production. MKSLIIGANGGVGQHLVRKLKARDVDFTAGVRKEEQVEALKADGIDATYIDVAKQSIDELIELFKSYDQILFSVGSGGSTGDDQTIIVDLDGAVKAIKASEQIDHQHFIMVSTYDSRREAFDASGDLKPYTIAKHYADDYLRHANLKYTIVHPGALTNEHETQQFNMSAQFENVQNPSITREDVAEVLVSVLTDEVLQGHEFQIINGDLSLLDATTKYLEE
[A] failed

[Q] Give recorded protein production. METRASYILVGVFTLLAVTGALAFVLWTAGRGEGKAMAAYDVHFSGNVMGLSVASDVFFNGVKVGAVKQITLNPDDPAKVKVRIEIDATTPVREDSVASLEGRGLTGVSVVQITGGSPHAPLLVGTAGEVPVIASRASRLEELFAGMPQLVGSGNELVNRLADVLNAENRAALASTFHALDTVTARMAARADSLDRIITNMDTTTRRLANASAGLETLAGDMRDLTRGDMRDSIVAVGNTARRLDALLAAAEPGVTGFSTEGLEDMRRLLIESRHLVTTLNRMAQRMESDPRRFMFGNQLPEYEER
[A] failed

[Q] Give recorded protein production. MAKGNKIPLTFHTYQDAATGTEVVRLTPPDVICHRNYFYQKCFFNDGSKLLFGAAFDGPWNYYLLDLKEQNATQLTEGKGDNTFGGFLSPNDDALYYVKNTRNLMRVDLTTLEEKTIYQVPDDWVGYGTWVANSDCTKMVGIEIKKEDWKPLTDWKKFQEFYFTNPCCRLIRVDLVTGEAETILQENQWLGHPIYRPGDDNTVAFCHEGPHDLVDARMWFINEDGTNMRKVKEHAEGESCTHEFWVPDGSAMIYVSYLKDDTNRYIRSIDPVTLEDRQLRVMPPCSHLMSNYDGTLLVGDGSDAPVDVQDDGGYKIENDPFLYVFNLKTGKEHRIAQHNTSWEVLEGDRQVTHPHPSFTPDNKQVLFTSDVDGKPALYLAKVPDSVWNLEHHHHHH
[A] not failed

[Q] Give recorded protein production. ATITHQEKLLTVDTTAHPFLKALGGHEGTDIFPLFMDPYNGLMVMRASFAPGLTLPLHFHTGTVHMYTISGCWYYTEYPGQKQTAGCYLYEPGGSIHQFNTPRDNEGQTEVIFMLSGCNVNFTQDGTYLGLSDAGVIKNWVDRAIREQDNGLRYIAAAVPTYAA
[A] not failed

[Q] Give recorded protein production. MRDATYPQLWAAVRAARKAGRTLESVKPAADQFQVKHNGDIVTEADRTVEETILAELSGQFPVHTVVSEESAPEFTTKPRWIIDPIDGTTNFLNGIPHYSISIAFEGAGEPDVGIVYHVPSETMYTAIEGGGAYANGQPLSLSATTELSEALIVTGFDTASMQAQEYDHFRTILNVTQGVRRFGSAAGELAMVAAGQFDAFFERQLSVWDTAAGVKIVEEAGGEVTRIKALDGKNSEMVLASNEAIHQDLVALVSAGTVPKMDGQ
[A] failed
